Where do these numbers come from? They come from paper PMC6017562.

Listing of recorded IC50 at 5 days by entry.
# assay.info: MTT cytotoxicity assay, A431
# Type: cell-based, human
# condition.set: human, A431 epidermoid carcinoma cells, 5 days incubation

>  <molecule>
CC(=O)C1=CC[C@H]2C3=CC(=O)[C@H]4C[C@H](O)CC[C@]4(C)[C@@]3(O)CC[C@]12C

>  <reading.unit>
µg/mL

>  <value.operator>
=

>  <IC50 at 5 days>
21

$$$$
>  <molecule>
CC(=O)C1=CC[C@H]2C3=CC(=O)[C@H]4CC(=O)CC[C@]4(C)[C@@]3(O)CC[C@]12C

>  <reading.unit>
µg/mL

>  <value.operator>
=

>  <IC50 at 5 days>
14

$$$$
>  <molecule>
CC(=O)C1C(O)CC2C3=CC(=O)C4CC(O)CCC4(C)C3(O)CCC21C (centres unmarked)

>  <reading.unit>
µg/mL

>  <value.operator>
=

>  <IC50 at 5 days>
22

$$$$
>  <molecule>
CC(=O)[C@H]1[C@H](O)C[C@H]2C3=CC(=O)[C@H]4C[C@H](O)CC[C@]4(C)[C@@]3(O)CC[C@@]21C

>  <reading.unit>
µg/mL

>  <value.operator>
>

>  <IC50 at 5 days>
70

$$$$
>  <molecule>
CC(=O)C1=CC[C@H]2C3=CC(=O)[C@H]4C[C@@H](O)CC[C@]4(C)[C@@]3(O)CC[C@]12C

>  <reading.unit>
µg/mL

>  <value.operator>
=

>  <IC50 at 5 days>
27

$$$$
